Listing: TGI of selected molecules
System: SW-620 colon
Assay: NCI tumour cell line growth inhibition, 48 h

Molecule	TGI
COc1ccc2c(c1)C(=O)CC(N)C2 (stereo not given)	> 100 µM
COc1cc(OC2OC(C)C(O)C(O)C2O)cc2oc(-c3ccc(O)cc3)c(CC=C(C)C)c(=O)c12 (stereo not given)	44 µM
COC(=O)c1c(-c2ccccc2)cc2c3cc(-c4ccccc4)c(C(=O)OC)n3c3ccccc3n12	> 100 µM
Cc1nn(C(=O)c2ccccc2O)c2c1C(c1ccccc1)SC(N)=N2 (stereo not given)	> 10 µM
COC(=O)C(COC(=O)/C=C/c1ccc(OC(C)=O)c(OC(C)=O)c1)OC(=O)/C=C/c1ccc(OC(C)=O)c(OC(C)=O)c1 (stereo not given)	23.5 µM
COc1cc([C@H](C)c2ccc3ccccc3c2)cc(OC)c1OC	> 100 µM
CC1(C)C(=O)N(c2ccccc2)C(=O)N1c1nc2ccccc2[nH]1	36.3 µM
O=C(Oc1ccc(O)c2c(=O)n3c(cc12)[nH]c1ccccc13)c1ccccc1	26.9 µM
COc1ccc(OC)c2cc(Cc3ccc(N(C)C)cc3)c(=O)c(Cc3ccc(N(C)C)cc3)cc12	> 100 µM
O=C(NCCNCCO)N/N=C/c1ccc(Cl)cc1	> 100 µM
CN1CC(c2ccccc2)N(CCCCN2CC(c3ccccc3)N(C)CC2c2ccccc2)CC1c1ccccc1 (stereo not given)	> 100 µM
CC(C)n1c(=O)n(-c2ccccc2)n(C(C)(C)C)c1=O	> 100 µM
CCCCC#COP(=O)(OCC)OCC	> 100 µM
COc1cc(C2C3=C(COC3=O)OC(C)(C)Oc3cc4c(cc32)OCO4)cc(OC)c1OC (stereo not given)	> 100 µM
N#CC(C#N)=C(N)/C(C#N)=C\c1ccnc2ccccc12	17.2 µM
C/C=C/[C@H]1O[C@@](OC)([C@@H](C)[C@H](O)[C@H](C)[C@H]2OC(=O)/C(OC)=C/C(C)=C/[C@@H](C)[C@@H](O)[C@@H](C)[C@@H](O)[C@H](C)C/C(C)=C/C=C/[C@@H]2OC)CC(OC2CC(O)C(OC(N)=O)C(C)O2)[C@@H]1C (stereo not given in full)	4.8 µM
CCN(CC)c1ccc(N=Nc2ccc(-c3nc4cccnc4o3)cc2)cc1	> 100 µM
O=C1c2cc(Br)ccc2-c2c1c1ccc([N+](=O)[O-])cc1c(=O)n2CCCCl	> 100 µM
O=c1cc(-c2ccccc2)[nH]c2cccc(S)c12	> 100 µM
COC(=O)C1(C(=O)OC)N=C(C)OC1C(C)C (stereo not given)	> 100 µM

---

Overview of reported TGI across a group of compounds:
Test system: PC-3 prostate
Experiment: NCI tumour cell line growth inhibition, 48 h
Reported endpoint: TGI (µM)

Compound	Assay system	Unit annotation	Qual	Quantitative result
O=C(O)C1CCc2ccc3ccccc3c2C1c1cccc2ccccc12 (stereo not given)	PC-3 prostate	µM	=	41.2
CSC(=NC1=NC(C(F)(F)F)(C(F)(F)F)N=C(c2ccccc2)O1)SC	PC-3 prostate	µM	=	38.9
Cc1nn(C(=O)c2ccccc2O)c2c1C(c1ccccc1)SC(N)=N2 (stereo not given)	PC-3 prostate	µM	>	10
NC(=O)c1c[se]c(C2OC(CO)C(O)C2O)n1 (stereo not given)	PC-3 prostate	µM	>	100
Oc1ccc(Br)cc1Sc1cc(Br)ccc1O	PC-3 prostate	µM	=	29.4
COc1ccc(NC2Oc3cc4c(cc3C(c3cc(OC)c(O)c(OC)c3)C2C)OCO4)cc1 (stereo not given)	PC-3 prostate	µM	>	100
O=c1[nH]nc(Cc2ccc(Cl)cc2)n1O	PC-3 prostate	µM	>	100
Cc1[nH]c(-c2ccccc2)c(-c2ccc(Cl)cc2)c1C(=O)ONC(=O)c1ccccc1	PC-3 prostate	µM	=	17.2
CC1(C)[C@@H]2C[C@H]1c1cnc(-c3ccccn3)cc1C2[C@@H]1c2cc(-c3ccccn3)ncc2[C@@H]2C[C@H]1C2(C)C (stereo not given in full)	PC-3 prostate	µM	>	100
OC1OC(c2ccco2)C(F)(F)C(F)(F)C1(F)F (stereo not given)	PC-3 prostate	µM	>	100
